Measured cytotoxicity at 10 µM values are reported for all entries that follow.
assay: Toxicity liver stage against HepG2, at 10uM; type: cell-based; design: test concentration 10 uM, cell line HepG2-A16-CD81EGFP; details: human, HepG2-A16-CD81EGFP cells; read-out: INHIBITION
State the answer as a number, implicitly in %.

compound | units-text | cytotoxicity at 10 µM
Cn1cc(C(=O)CC2CCCN2C(=O)c2ccn3ccnc3c2)cn1 (configuration not stated) | % | -5.81
CN(C)S(=O)(=O)N1C[C@H]2CC[C@@H](C1)N(Cc1cccc(C#N)c1)C2 | % | 3.62
CS(=O)(=O)CCN1CCC2(CCCN(C3CCOCC3)C2=O)C1 (configuration not stated) | % | -5.65
CN(Cc1ccccn1)C(=O)C(c1ccccc1)N1CCSCC1 (configuration not stated) | % | -9.71
Cc1cc(C(=O)N(CC(F)(F)F)C2CCOCC2)c(C)o1 | % | -0.541
CC[C@@H]1N(CC2CC2)CCC[C@]12CCC(=O)N2 | % | 15.4
Cc1ccc(C(=O)NC(C)Cn2cccn2)c(=O)[nH]1 (configuration not stated) | % | -2.16
COC[C@@]12CC[C@@H](N3CCOCC3)C[C@H]1CCN(c1cc(C)ccn1)C2 | % | -3.53
Cc1nc(COCC2CNCc3nccn3C2)cs1 (configuration not stated) | % | 1.79
COc1cccc2c1N(Cc1noc(C3CC3)n1)CCC2 | % | -5.59

# cytotoxicity at 10 µM of C=c1nc(NC)sc1=C1NC(c2c(C)ncc3c2CCNC3)=NO1 = 1.67

Just so you know, measured cytotoxicity at 10 µM for Cc1noc(C)c1CN1CCn2cc(CN3CCCC3)nc2C1 came out at 5.37

---

Measured cytotoxicity at 10 µM, listed per entry for reference.
test: Toxicity liver stage against HepG2, at 10uM; type: cell-based; design: test concentration 10 uM, cell line HepG2-A16-CD81EGFP; conditions: human, HepG2-A16-CD81EGFP cells; read-out: INHIBITION
Only the number, expressed in %, is required.

molecule | observed
O=C(c1cnn[nH]1)N(CCCO)Cc1cccnc1 | -2.48

For CCN(Cc1ccc(Cl)c(Cl)c1)C(=O)CCn1cncn1 the molecule record lists cytotoxicity at 10 µM as 9.87

// cytotoxicity at 10 µM value for CCn1c(CN(C)C(=O)c2ccc(OC)nc2)nc2ccccc21 : -6.23

Given item COc1cccc(CCC2CCCN(C(=O)c3n[nH]c4c3CCC4)C2)c1 (configuration not stated) , the value recorded as its cytotoxicity at 10 µM is 4.48

The molecule listed as O=C([C@H]1CN(CCc2ccccc2)C[C@H]2OCC[C@@H]12)N1CCCO1 has a reported cytotoxicity at 10 µM of -9.49

Looking up CCNC(=O)c1c2c(N3CCN(C)CC3)ncnc2n2ccccc12 , I found its cytotoxicity at 10 µM recorded as -74.8

The reported value for Cc1ccnc(NC(=O)CCc2cnn(C)c2C)c1 in terms of cytotoxicity at 10 µM is 0.107

---

test: Toxicity liver stage against HepG2, at 10uM; format: cell-based; design: test concentration 10 uM, cell line HepG2-A16-CD81EGFP; conditions: human, HepG2-A16-CD81EGFP cells; read-out: INHIBITION
reported-endpoint: cytotoxicity at 10 µM (%)
Number in %, nothing else.

Study these solved cases before continuing.
compound | reported-endpoint | observed
CCSc1nsc(NC(=O)COc2ccc3c(c2)OCO3)n1 | cytotoxicity at 10 µM | 2.03
Cn1cnc2c1C(COCc1ccccc1)N(Cc1ccncc1)CC2 (stereo not drawn) | cytotoxicity at 10 µM | -1.99
c1csc(CN2CCC3(CC2)COCCN3CC2CC2)n1 | cytotoxicity at 10 µM | 5.53

Consider CC(C)(C)C(O)CN1CCN(Cc2ccc(C#N)cc2)CC1 (stereo not drawn) . Its measured cytotoxicity at 10 µM is -8.88

What the record says about N#Cc1ccccc1C(=O)N1C[C@@H](CN2CCCCCC2)[C@@H](CO)C1 : cytotoxicity at 10 µM is 1.1

Entry under test: O=C(Cn1ccnc1)N1C[C@@H]2CC[C@H](Oc3cccc(F)c3)[C@@H]2C1 . Its cytotoxicity at 10 µM was -18

Lookup result for O=C(c1nc(=O)[nH]c2ccccc12)N1CCCC2(CCNC2)C1 (stereo not drawn) ; measured cytotoxicity at 10 µM: -3.64

Item: CN(Cc1nc(COc2ccccc2)no1)CC1Cc2ccccc2O1 (stereo not drawn) | cytotoxicity at 10 µM: -4.4

---

assay: Toxicity liver stage against HepG2, at 10uM; assay type: cell-based; parameters: test concentration 10 uM, cell line HepG2-A16-CD81EGFP; settings: human, HepG2-A16-CD81EGFP cells; read-out: INHIBITION
reported-endpoint: cytotoxicity at 10 µM (%)
Kindly answer with a numeric value in %, unit omitted.

Worked cases, answers included:
compound | observed
Cn1cc(S(=O)(=O)NC(=O)C2(c3cccc(Cl)c3)CC2)cn1 | -10
CCNc1cc2c(nn1)CCN(C(=O)c1ccc(C(N)=O)cc1)C2 | -15.6
Cc1ccccc1C(C(=O)N(C)CCc1cn[nH]c1)N(C)C (stereo unspecified) | -5.86
O=C1C[C@H]2[C@H](CCN2Cc2ccccn2)N1CC1CC1 | 5.8
O=C(NCc1ccccc1)N1C[C@H]2CCN[C@H]2C1 | -5.54

Form: compound = COC(=O)C1CCCN1C(=O)c1cc(CC(C)C)no1 (stereo unspecified) ; cytotoxicity at 10 µM = 14

Lab note: COc1cccc([C@H]2CN(C(C)=O)[C@@H]3CCN(Cc4ccsc4)C[C@H]23)c1 gave cytotoxicity at 10 µM of -9.19

# compound Cn1ncc2c1C(COCC1CC1)CN(CC1CC1)C2 (stereo unspecified) ; its cytotoxicity at 10 µM = -78.5

---

assay: Toxicity liver stage against HepG2, at 10uM; format: cell-based; set-up: test concentration 10 uM, cell line HepG2-A16-CD81EGFP; settings: human, HepG2-A16-CD81EGFP cells; read-out: INHIBITION
Listing of recorded cytotoxicity at 10 µM by entry.
Numbers only here, please. The scale is %.

molecule | units-text | cytotoxicity at 10 µM
Cc1ccc(C(C)NCc2c(C(C)C)nn(C)c2N2CCOCC2)o1 (centres undefined) | % | -4.79
CC(C)N1CCCC2(CCN(C(=O)CCCn3cncn3)C2)C1=O (centres undefined) | % | -11.1
CC(NCC1=Cc2cc(Cl)ccc2OC1)c1nnc2n1CCCC2 (centres undefined) | % | -11.4

Read the next record carefully.
Reported cytotoxicity at 10 µM of FC(F)(F)c1nc(NC2CCc3ncnn3C2)c2ccccc2n1 (centres undefined) : -2.99

---

test: Toxicity liver stage against HepG2, at 10uM; assay type: cell-based; design: test concentration 10 uM, cell line HepG2-A16-CD81EGFP; settings: human, HepG2-A16-CD81EGFP cells; read-out: INHIBITION
reported-endpoint: cytotoxicity at 10 µM (%)
Response body: numeric value in %, unit text excluded.

Examples with their reported cytotoxicity at 10 µM follow.
compound | cytotoxicity at 10 µM, %
Cc1cc(CN2C[C@@H]3COC[C@]3(COCC(=O)N(C)C)C2)no1 | 1.44
CCn1ncc2c1CN(C(=O)c1cscn1)CC2COC (configuration not stated) | -79.1
COc1ccc(CNC(C)c2ccc(Cl)cc2)c(OC)c1OC (configuration not stated) | 7.74
O=C(NC[C@H]1OC[C@@H](NCc2ccc(F)cc2)[C@@H]1O)c1ccncc1 | 7.2
O=C(Nc1ccc(F)cc1)C1CNCCN1C(=O)CCO (configuration not stated) | 1.93
Nc1nc(C(=O)NCC2CCC3(CCNCC3)CO2)cs1 (configuration not stated) | 21
O=C(Cc1c[nH]c2ccccc12)N1CCC(Nc2cccnn2)CC1 | -5.08
CCN(Cc1ccc(OC)c(F)c1)C(=O)c1ccc(C)[nH]c1=O | -8.08

Per the records, this compound ( Cc1ncncc1C(=O)N1CCC(O)(CN(C)Cc2ccc(F)cc2)C1 (configuration not stated) ) has cytotoxicity at 10 µM equal to -7.16

GET /value?item= COCC1CCN(CCCc2cccc(OC)c2)CC1 &field=cytotoxicity at 10 µM returns -11

cytotoxicity at 10 µM reading for O=C1C(N2CCN(c3ccccc3Cl)CC2)CCN1C1CCOCC1 (configuration not stated) : -0.455

Form field cytotoxicity at 10 µM, entry CCC1CCCCN1C(=O)c1ccnc(N(C)C)c1 (configuration not stated) : -0.743

---

// reported cytotoxicity at 10 µM per item
assay: Toxicity liver stage against HepG2, at 10uM; format: cell-based; set-up: test concentration 10 uM, cell line HepG2-A16-CD81EGFP; settings: human, HepG2-A16-CD81EGFP cells; read-out: INHIBITION
Provide only the numeric value, understood in %.

compound | units-text | observed
Cn1cc(CN2CCC3(CCC(C(=O)NCC4CC4)C3)CC2)cn1 (stereo not given) | % | 3.47
Cc1cc(CN2CCO[C@H]3[C@H](OCc4csc(C)n4)CC[C@@H]32)no1 | % | 5.86
CCc1nc2n(n1)CC(NCC(=O)Nc1oc(C)c(C)c1C#N)CC2 (stereo not given) | % | -8.84
CC(C)C(=O)NS(=O)(=O)c1ccc(F)c(C(F)(F)F)c1 | % | -2.32
CCCn1ncc(C2CC(=O)NCc3nc4cc(C)ccn4c32)c1C (stereo not given) | % | -3.21
Cc1noc(C)c1-c1ccnc(C2CCNCC2)c1 | % | -8.41
C[C@@H]1CN(C(=O)c2ccc(=O)[nH]c2)CC[C@@]1(O)C1CCOCC1 | % | -1.59
COc1cccc(-n2c(C)cc(C(=O)O)c2C)c1 | % | -8.65
Cc1nn(C)c(Cl)c1C1CCCN1c1ncnc2[nH]ccc12 (stereo not given) | % | 10.9
FC(F)(F)c1cccc(-c2c[nH]c(C3CCCN3)n2)c1 (stereo not given) | % | -3.25

cytotoxicity at 10 µM recorded for this compound, Cc1c(CC(=O)N2CCN(CC(F)(F)F)CC2)nnn1-c1ccccc1 , is -14.8

Quick note, cytotoxicity at 10 µM for Cc1cc(N2CCC(c3ncc[nH]3)CC2)c2ccccc2n1 landed at -9.74

GET /value?item= N#Cc1ncn(CCC(=O)Nc2ccc(F)c(F)c2)n1 &field=cytotoxicity at 10 µM returns -147

Query CCn1nc(C)c(CCNC(=O)c2cccc(-n3cccn3)c2)c1C yields cytotoxicity at 10 µM of -12.9
